# Test system: Human diploid fibroblasts HCA
# PROTOCOL_DESCRIPTION: Anti-aging activity: senescence-associated beta-galactosidase in human fibroblasts
# Format: cell-based
# CONDITION_CONTEXT: passage 50, cells expressing senescence-associated beta-galactosidase
MEASURED_PARAMETER: Senescent Cells (%) HCA passage 50

>>> df
                                   molecule  val
0  Oc1ccc(Nc2nc(F)nc3nc[nH]c23)cc1 [2-fluoro-6-(4-hydroxyanilino)purine]    4
1          COc1cccc(Nc2nc(F)nc3nc[nH]c23)c1    5
2  Nc1nc(Nc2ccc(O)cc2)c2[nH]cnc2n1 [2-amino-(4-hydroxyanilino)purine]    4
